- measured.on: SARS-CoV-2 RBD (SARS-CoV-2)
- method: sVNT, cPass kit with SARS-CoV-2 RBD-HRP; HEK293 supernatant
property.label: sVNT SARS-CoV-2 (% I) (%)

[[record]]
binder = "Antibody 7 (SS6V7-C5) (antibody, V domains shown) VH: EVQLVQSGAEVKKPGESLKISCKGSENIFSGYWIGWVRQMPGKGLEWMGIIYPDDSDTRYNPSFQGQVTISADQSISTAYLQWSRLKASDTAMYYCARHLGGGSSWPIDYWGQGTLVTVSS VL: DIQMTQSPSSLSASVGDRVTITCRANQGISNYLAWFQQKPGKAPKSLIYAASSLQSGVPSKFSGNRSGTDFTLTISSLQPEDFATYYCQQYSSYPFTFGGGTKVEIK"
property_label = "sVNT SARS-CoV-2 (% I)"
value_reported = 14.9

[[record]]
binder = "Antibody 2 (SS6V2-G1) (antibody, V domains shown) VH: EVQLVESGGGLVQPGGSLRLSCAASGFTVSSNYMSWVRQAPGKGLEWVSVIYSGGSTFYADSVKGRFTISRDNSKNTLYLQMNSLRAEDTAVYYCARELRHYFDYWGQGTLVTVSS VL: DIQLTQSPSFLSASVGDRVTITCRASQGISSYLAWYQQKPGKAPKLLIYAASTLQSGVPSRFSGSGSGTEFTLTISSLQPEDFATYYCQQLNSYPPYSFGQGTKVEIK"
property_label = "sVNT SARS-CoV-2 (% I)"
value_reported = 20.2

[[record]]
binder = "Antibody 14 (SS6V14-F2) (antibody, V domains shown) VH: QVQLQESGPGLVKPSETLSLTCTVSGGPISSYYWTWIRQPPGKGLEWIGYIYYSGSTNYSPSLKSRVTMSLETSKNQFSLKLTSVTAADTAVYYCARDPLAEGAASSGFDNWGQGTLVTVSS VL: DIQMTQSPSSLSASVGDRVTITCRASQSISSYLNWYQQKPGKAPKLLIYAASALQSGVPSRFSGSGSGTHFSLTINGLQPEDFATYSCQQSYTTPRTFGPGTKVEIK"
property_label = "sVNT SARS-CoV-2 (% I)"
value_reported = 33.4


Cited source: patent US20240254204A1
